assay: Cytotoxicity against human KB-0528 cells after 72 hrs by SRB assay; type: functional, cell-based; settings: KB-0528, 72 h
Metric: IC50 (nM)
Answer in nM, number only, no unit symbol.

Look at this molecule and give its reported IC50. CC(=O)O[C@@]12CO[C@@H]1C[C@H](O)[C@@]1(C)C(=O)[C@H](O)C3=C(C)[C@@H](OC(=O)[C@H](O)[C@@H](NC(=O)OC(C)(C)C)c4ccccc4)C[C@@](O)([C@@H](OC(=O)c4ccccc4)[C@H]21)C3(C)C.O.O.O [DOCETAXEL]
0.454

Look at this molecule and give its reported IC50. CC(=O)O[C@@]12CO[C@@H]1C[C@H](O)[C@@]1(C)C(=O)[C@H](O)C3=C(C)[C@@H](OC(=O)[C@H](O)[C@@H](NC(=O)OC(C)(C)C(F)(F)F)c4ccccc4)C[C@@](O)([C@@H](OC(=O)c4cccc(F)c4)[C@H]21)C3(C)C
0.21

Look at this molecule and give its reported IC50. CC(=O)O[C@@]12CO[C@@H]1C[C@H](O)[C@@]1(C)C(=O)[C@H](O)C3=C(C)[C@@H](OC(=O)[C@H](O)[C@@H](NC(=O)OC(C)(C)C(F)(F)F)c4ccc(F)cc4)C[C@@](O)([C@@H](OC(=O)c4ccccc4)[C@H]21)C3(C)C
0.0259

Look at this molecule and give its reported IC50. CC(=O)O[C@@]12CO[C@@H]1C[C@H](O)[C@@]1(C)C(=O)[C@H](O)C3=C(C)[C@@H](OC(=O)[C@H](O)[C@@H](NC(=O)OC(C)(C)CF)c4ccccc4)C[C@@](O)([C@@H](OC(=O)c4cccc(F)c4)[C@H]21)C3(C)C
0.248

----------
Exercise: state measured half-life for each of the molecules provided.
assay: Half life in Sprague-Dawley rat plasma at 5 mg/kg, iv by LC-MS/MS analysis; type: ADME, organism-based; design: dose 5 mg/kg, route intravenous
Answer in min, number only, no unit symbol.

Look at this molecule and give its reported half-life. CC(=O)O[C@@]12CO[C@@H]1C[C@H](O)[C@@]1(C)C(=O)[C@H](O)C3=C(C)[C@@H](OC(=O)[C@H](O)[C@@H](NC(=O)OC(C)(C)C(F)F)c4ccccc4)C[C@@](O)([C@@H](OC(=O)c4cccc(F)c4)[C@H]21)C3(C)C
609

Look at this molecule and give its reported half-life. CC(=O)O[C@@]12CO[C@@H]1C[C@H](O)[C@@]1(C)C(=O)[C@H](O)C3=C(C)[C@@H](OC(=O)[C@H](O)[C@@H](NC(=O)OC(C)(C)CF)c4ccc(F)cc4)C[C@@](O)([C@@H](OC(=O)c4ccccc4)[C@H]21)C3(C)C
304

Look at this molecule and give its reported half-life. CC(=O)O[C@@]12CO[C@@H]1C[C@H](O)[C@@]1(C)C(=O)[C@H](O)C3=C(C)[C@@H](OC(=O)[C@H](O)[C@@H](NC(=O)OC(C)(C)C(F)F)c4ccccc4)C[C@@](O)([C@@H](OC(=O)c4ccccc4)[C@H]21)C3(C)C
461

Look at this molecule and give its reported half-life. CC(=O)O[C@@]12CO[C@@H]1C[C@H](O)[C@@]1(C)C(=O)[C@H](O)C3=C(C)[C@@H](OC(=O)[C@H](O)[C@@H](NC(=O)OC(C)(C)CF)c4ccccc4)C[C@@](O)([C@@H](OC(=O)c4ccccc4)[C@H]21)C3(C)C
732
